tested on: C-33-A; experiment: Antiproliferative activity against human C-33-A cells assessed as reduction in cell viability after 72 hrs by SRB assay; format: functional, cell-based
pIC50: −log10 of the molar value.

lineNotation: Nc1ccc2oc(-c3ccc4nc(N)sc4c3)nc2c1
assayedSystem: C-33-A
pIC50: 4.92

---

tested on: HeLa; assay: Antiproliferative activity against human HeLa cells assessed as growth inhibition at 20 uM viability after 72 hrs by SRB assay relative to control; format: functional; conditions: read-out: GI
# Lookup of reported inhibition of growth at 20 µM keyed by entry

lineNotation: N#Cc1ccc(-c2nc3ccccc3s2)cc1
assayedSystem: HeLa
inhibition of growth at 20 µM [%]: 10.8

lineNotation: Nc1nc2ccccc2[nH]1
assayedSystem: HeLa
inhibition of growth at 20 µM [%]: 1.1

lineNotation: Nc1ccc2oc(-c3cc(I)ccc3Cl)nc2c1
assayedSystem: HeLa
inhibition of growth at 20 µM [%]: 26.5

lineNotation: Nc1ccc2oc(-c3cccc4c(Br)cccc34)nc2c1
assayedSystem: HeLa
inhibition of growth at 20 µM [%]: 13.8

lineNotation: Nc1ccc(-c2nc3ccccc3[nH]2)c(N)c1
assayedSystem: HeLa
inhibition of growth at 20 µM [%]: 0.2

lineNotation: O=[N+]([O-])c1ccc(-c2nc3cc([N+](=O)[O-])ccc3o2)cc1
assayedSystem: HeLa
inhibition of growth at 20 µM [%]: 3.8

lineNotation: Nc1ccc2oc(-c3ccccc3)nc2c1
assayedSystem: HeLa
inhibition of growth at 20 µM [%]: -2.3

lineNotation: Clc1ccc(-c2nc3ccccc3s2)c(Cl)c1
assayedSystem: HeLa
inhibition of growth at 20 µM [%]: 0.3

lineNotation: Nc1cccc(-c2nc3ccccc3[nH]2)c1
assayedSystem: HeLa
inhibition of growth at 20 µM [%]: 0

lineNotation: c1ccc(-c2nc3ccccc3[nH]2)nc1
assayedSystem: HeLa
inhibition of growth at 20 µM [%]: 2.5

lineNotation: Clc1ccccc1-c1nc2ccccc2s1
assayedSystem: HeLa
inhibition of growth at 20 µM [%]: 4.9

lineNotation: C[n+]1ccccc1-c1nc2ccccc2s1
assayedSystem: HeLa
inhibition of growth at 20 µM [%]: 1.2

lineNotation: O=C(Nc1nc2ccccc2s1)c1c(Cl)cccc1Cl
assayedSystem: HeLa
inhibition of growth at 20 µM [%]: 3.5
